Where these numbers come from: a melting point compilation (Tetko et al.; mined from patent text by program, amines drawn as free bases though some values may be those of a salt)

Readings of melting point for the listed compounds

Query: Which melting point reading was recorded for the compound NC(=S)N1c2ccccc2C=Cc2ccccc21 ?
Reply: 192 to 194 °C

* * *

readout_type: melting point

Query: Item O=[N+]([O-])c1ccnc(Nc2nccs2)c1 has what recorded melting point?
Reply: 230 to 233 °C

Query: Return reported melting point; argument: CC(=C(c1ccc(N(C)C)cc1)c1ccc(N(C)C)cc1)P(c1ccccc1)c1ccccc1
Reply: 95 to 97 °C

Query: Data request, read-out melting point, for COc1cc(OC)nc(C(=O)c2nccc(-c3ccccc3)c2C(=O)OCc2ccccc2)n1
Reply: 124 to 126 °C

Query: Request the reported melting point associated with CC(C)(C)NCC(O)COc1ccc(C(N)=O)cc1I (centres undefined)
Reply: 111 to 114 °C

* * *

readout_type: melting point

Query: Given the entry Oc1ccc2nc(-c3cccc(O)c3O)oc2c1 , report its measured melting point.
Reply: 256 to 258 °C

Query: Value lookup for melting point; key = CC(C)(C)[C@H](NC(=O)[C@@H](CC(=O)OCc1ccccc1)n1ccc(-c2ccc(-c3ccc(C#N)cc3)cc2)c1)C(=O)Nc1ccncc1
Reply: 115 to 116 °C

Query: I have this compound here, Cc1[nH]c(C(=O)Nc2ccc3c(c2)OCCO3)c(C)c1-c1nc2ccc(C(=O)c3ccccc3)cc2[nH]1 , and I need its recorded melting point.
Reply: 145 to 147 °C

Query: What does the record list as melting point for CCCCOC(=O)NCC(=O)NCC1C2CCC(O2)C1CC=CCCCC(=O)O (configuration not stated) ?
Reply: 104 to 106 °C

Query: What does the record list as melting point for O=C(O)CC(CC(=O)O)c1ccc2oc3c(c2c1)CCCC3 ?
Reply: 165 to 170 °C

* * *

readout_type: melting point

O=c1cc(-c2ccc([N+](=O)[O-])cc2)oc2ncccc12; 261 to 263 °C

Query: Reported melting point for Cc1cn(C(C)(C)C(=O)NCc2ccccc2)nc1-c1ccccc1 : what is it?
Reply: 87 to 90 °C

Query: Look up melting point for this compound: Cc1ccc(S(=O)(=O)NCCCCSc2ccc(NS(C)(=O)=O)cc2)cc1
Reply: 95 to 96 °C

Query: Any idea what melting point was measured for COC(C=CC=Cc1ccc(OC)cc1)=CC(=O)O ?
Reply: 187 °C

* * *

readout_type: melting point

Known melting point results, listed for orientation:
O=C(CCC1C2CC3CC(C2)CC1C3)N1C(=O)OCC1Cc1ccccc1 (stereo unspecified); 82 to 83 °C
COc1cc(OC)c([N+](=O)[O-])c(OC)c1NC=O; 98 °C
O=C(Nc1ccc(C(F)(F)F)cc1)Nc1ccc(S(=O)(=O)NCCN2CCOCC2)cc1; 62 to 65 °C
COc1cc(COc2nn(-c3ccccc3)cc2/C=C2\SC(=O)NC2=O)ccc1OCc1nc(-c2ccco2)oc1C; 252 to 253 °C
CC=CCN1C(=O)c2ccccc2Oc2ncccc21; 79 to 81 °C

Query: Give the measured melting point of C#Cc1cnc(OCCOc2ncnc(NS(=O)(=O)c3ccc(C(C)(C)C)cc3)c2-c2ccc(C)cc2)nc1 .
Reply: 207 to 210 °C

* * *

melting point reference

COc1ccc(COC(=O)NCCc2c[nH]c3ccccc23)cc1; 108 to 109 °C
CCc1ncnc(NC(CO)CO)c1Cl; 104 to 105 °C
COc1cc(-c2cc(C3CCOCC3)no2)cc2oc(=O)c(C)c(C)c12; 151 °C
COc1ccc(-c2nc(S(C)(=O)=O)ncc2C(=O)N2CCOCC2)cc1OC; 77 °C
CNn1cc(C(=O)O)c(=O)c2cc(F)c(N3CCN(C)CC3)cc21; 299 to 301 °C

Continue with the next compound.
Query: I have this compound here, CC(=O)Nc1ccc(NCC(=O)C23CC4CC(CC(C4)C2)C3)cc1 , and I need its recorded melting point.
Reply: 156 to 158 °C
